Catalogue of compounds with associated pEC50
- targetOrTestSystem: TRPV1 (Rattus norvegicus, UniProt O35433)
- Construct: rat mesenteric arterial segments precontracted with phenylephrine; from tissue; host or cells: rat isolated mesenteric arterial segments (Sprague-Dawley rats)
- Sequence (O35433 whole entry): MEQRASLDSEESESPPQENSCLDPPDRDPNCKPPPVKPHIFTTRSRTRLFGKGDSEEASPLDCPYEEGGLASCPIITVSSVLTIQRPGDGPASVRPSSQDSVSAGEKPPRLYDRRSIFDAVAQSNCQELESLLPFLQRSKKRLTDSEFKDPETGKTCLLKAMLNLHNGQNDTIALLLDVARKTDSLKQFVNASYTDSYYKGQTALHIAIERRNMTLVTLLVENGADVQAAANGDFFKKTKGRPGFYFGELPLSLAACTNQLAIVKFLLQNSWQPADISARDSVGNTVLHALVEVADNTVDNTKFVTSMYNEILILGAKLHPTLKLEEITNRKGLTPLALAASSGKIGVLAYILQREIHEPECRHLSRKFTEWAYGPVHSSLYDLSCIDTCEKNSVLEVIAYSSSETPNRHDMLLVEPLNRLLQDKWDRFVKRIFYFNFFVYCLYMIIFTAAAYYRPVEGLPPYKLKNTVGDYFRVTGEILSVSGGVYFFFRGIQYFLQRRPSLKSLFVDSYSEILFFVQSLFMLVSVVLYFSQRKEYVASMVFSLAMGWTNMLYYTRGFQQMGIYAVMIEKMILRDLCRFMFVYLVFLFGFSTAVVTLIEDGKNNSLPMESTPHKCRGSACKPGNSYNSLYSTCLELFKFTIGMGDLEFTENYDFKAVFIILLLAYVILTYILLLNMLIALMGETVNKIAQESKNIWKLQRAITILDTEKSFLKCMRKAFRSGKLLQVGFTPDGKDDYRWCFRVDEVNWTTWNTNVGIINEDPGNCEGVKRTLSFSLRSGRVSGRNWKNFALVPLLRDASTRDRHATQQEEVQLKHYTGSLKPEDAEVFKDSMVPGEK
- assayExplanation: TRPV1 activation assessed as nerve-mediated vasorelaxation in rat isolated mesenteric arteries
- Assay type: cell-based
- Description: TRPV1 activation was assessed indirectly on rat isolated mesenteric arteries, using nerve-mediated vasorelaxation as readout. […] Data are presented as the mean ± SEM, and n indicates the number of animal tested in each group. pEC50 of the lipid metabolites indicates the negative log concentration that elicited half-maximal vasorelaxation. […] Data from the paw pressure test were analyzed by repeated measures two-way ANOVA followed by Sidak’s or Dunnett’s multiple comparisons test. […]
In textbook form, pEC50 equals minus log to base ten of the concentration in mol/L.

CCCCC/C=C\C/C=C\C/C=C\C/C=C\CCCC(=O)Nc1ccc(O)cc1
7.50
CCCCC/C=C\C/C=C\C/C=C\C/C=C\CCCC(=O)NCc1ccc(O)c(OC)c1
9.70

Turning now to a further compound:
### Prompt Note pEC50 for the compound shown: CCCCCCCC/C=C\CCCCCCCC(=O)NCc1ccc(O)c(OC)c1
### Response 9.50

The reported measurements were obtained from paper PMC3734263.
